B1: HDAC6 (parent)
chain: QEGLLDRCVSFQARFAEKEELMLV

# Variants of: B1
# PROCEDURE_SUMMARY: protein stability index of a GFP-peptide fusion (GPS, HEK-293T) (PSI 1-6); higher = more stable;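 further: lentivirally expressed fusions sorted by FACS into six bins by GFP to DsRed ratio, PSI derived from sequencing read proportions per bin multiplied by bin number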
# CONDITION: c terminus: a fixed tail appended
OBSERVATION_TYPE: protein stability index
Could you keep your reply to the number by itself?

Guide cases for protein stability index, answers given:
mutation_code=R7C test_value=2.32
mutation_code=L23V test_value=1.93
mutation_code=R14L test_value=1.7

## Input Indicate the recorded protein stability index value for this variant: G3Q
## Output 2.01

## Input Please indicate protein stability index recorded for L4V
## Output 1.9

## Input Give the value of protein stability index reported for the following: G3S
## Output 2.19

## Input Report measured protein stability index; entry is D6L
## Output 1.9

## Input Provide one value: measured protein stability index of S10V
## Output 1.45
